These data points were gathered from IntAct's records for PubMed 21785410.

B1: NAP1-binding protein (Saccharomyces cerevisiae), P52919 (parent)
chain: MLKSVQGLWKDFFGIRDDGRKREYGSLDEVRKRSALRSRRKQMRPTGKSVLKRPRKVTDRKTEEKIRTNRRKTPKRRLTKIFQTIRDVFSNDNENMSKMQNVCGDMTRILKKRSQGRPSYMDTDTAKSRILRSDAFKRKISELKYNKQRISELRSGSSDGSSGKDRNQSLYLDREILLQRQIKKRDEKIKALESKLQSLQEALNYSNEKYRILEDLLDSSNIHPSYTKSRRTMSNLARENDEIKPLKIDLSPSPIRRTNSLFTSSPMKTYNRDGNIPEMQPLQENISPACPTPPYRSRETEKEDETLSPISVDFSSYLS

Variants of: B1
Conditions: with nic96_yeast NIC96, P34077
Sequence (P34077 whole entry): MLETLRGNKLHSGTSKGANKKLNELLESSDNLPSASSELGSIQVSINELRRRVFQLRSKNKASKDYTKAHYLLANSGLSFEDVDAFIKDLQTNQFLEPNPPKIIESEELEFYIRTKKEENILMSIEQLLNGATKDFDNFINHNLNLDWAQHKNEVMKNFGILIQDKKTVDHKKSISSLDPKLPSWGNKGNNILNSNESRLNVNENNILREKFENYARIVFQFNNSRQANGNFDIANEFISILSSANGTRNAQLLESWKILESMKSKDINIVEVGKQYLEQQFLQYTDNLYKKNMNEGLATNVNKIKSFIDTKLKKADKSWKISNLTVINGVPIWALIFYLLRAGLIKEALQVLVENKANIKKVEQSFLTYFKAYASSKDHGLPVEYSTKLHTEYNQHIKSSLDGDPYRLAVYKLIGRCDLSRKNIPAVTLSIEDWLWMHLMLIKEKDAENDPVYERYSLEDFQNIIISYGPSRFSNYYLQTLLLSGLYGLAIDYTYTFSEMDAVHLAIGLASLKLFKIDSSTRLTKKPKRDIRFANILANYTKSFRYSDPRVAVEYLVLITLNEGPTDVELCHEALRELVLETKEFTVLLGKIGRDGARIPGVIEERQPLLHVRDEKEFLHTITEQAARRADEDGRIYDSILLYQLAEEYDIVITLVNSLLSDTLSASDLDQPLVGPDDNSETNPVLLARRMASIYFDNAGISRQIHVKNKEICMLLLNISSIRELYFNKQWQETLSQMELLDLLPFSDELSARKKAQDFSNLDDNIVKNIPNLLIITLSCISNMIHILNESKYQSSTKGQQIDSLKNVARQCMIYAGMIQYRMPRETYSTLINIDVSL
experimental readout: effect of a mutation on the interaction

Sample records with effect of a mutation on the interaction:
{"variant code": "F12A", "effect of a mutation on the interaction": "disrupting interaction"}
{"variant code": "V5A", "effect of a mutation on the interaction": "disrupting interaction"}
{"variant code": "W9A", "effect of a mutation on the interaction": "disrupting interaction"}
{"variant code": "L2A", "effect of a mutation on the interaction": "disrupting interaction"}

Input line: GET /values?readout=effect of a mutation on the interaction&item= "F13A"
Output line: disrupting interaction
